Target: GABA-A receptor; anion channel
Experiment: Binding affinity for Gamma-aminobutyric acid A receptor from rat brain in the presence of radioligand [35S]- TBPS
pIC50: −log10 of the molar value.
recordedMetric: pIC50

molecule="CC(C)C1(C)CCNC1=O (stereo unspecified)" recordedvalue=2.16
molecule="CCC1(C)CCNC1=O (stereo unspecified)" recordedvalue=1.92
molecule=CCC1(CC)CCNC1=O recordedvalue=2.24
molecule=CC1(C)CCNC1=O recordedvalue=1.49
molecule="CCC1(C(C)C)CCNC1=O (stereo unspecified)" recordedvalue=2.58
molecule="O=C1NCCC1Cc1ccccc1 (stereo unspecified)" recordedvalue=2.61
molecule=O=C1CCCS1 recordedvalue=3.48
molecule="CC1(Cc2ccccc2)CCNC1=O (stereo unspecified)" recordedvalue=3.07
molecule="CC(C)(C)C1(C)CCNC1=O (stereo unspecified)" recordedvalue=2.49
molecule="CCC1CCNC1=O (stereo unspecified)" recordedvalue=1.32
molecule=O=C1NCCC12CCCC2 recordedvalue=1.92

----------
TD50 values for the compounds below.
Assay: Neurotoxicity in mice was assessed by rotarod test
Format: toxicity
Conditions: mouse, in vivo
recordedMetric: TD50 (mg/kg)

compound=O=C1CCCN1 unitspec=mg/kg valuemodifier=> recordedvalue=900
compound=CC1(C)CCNC1=O unitspec=mg/kg valuemodifier=> recordedvalue=600
compound="CCC1(C(C)C)CCNC1=O (stereo not drawn)" unitspec=mg/kg valuemodifier== recordedvalue=207
compound=O=C1NCCC12CCCC2 unitspec=mg/kg valuemodifier== recordedvalue=307
compound="O=C1NCCC1Cc1ccccc1 (stereo not drawn)" unitspec=mg/kg valuemodifier== recordedvalue=144
compound="CC1CCNC1=O (stereo not drawn)" unitspec=mg/kg valuemodifier=> recordedvalue=900
compound=CCC1(CC)CCNC1=O unitspec=mg/kg valuemodifier== recordedvalue=260
compound="CC(C)(C)C1(C)CCNC1=O (stereo not drawn)" unitspec=mg/kg valuemodifier=> recordedvalue=300
